Hey, just so you know, these numbers are from ChEMBL document CHEMBL3217673.

test: Selectivity index, ratio of IC50 for rat L6 cells to IC50 for Trypanosoma cruzi Tulahuen C2C4; type: toxicity, cell-based; conditions: read-out: Ratio IC50
TEST_READOUT: selectivity ratio
Write the number on its own, no unit after it.

Enquiry: Which selectivity ratio is reported for this molecule? CN1/C(=C/C=C/c2oc3ccc(Cl)cc3[n+]2C)Oc2ccc(Cl)cc21
Return: 0.8

Enquiry: Repeat with CCN1/C(=C/C=C/c2oc3ccccc3[n+]2C)Sc2ccc(F)cc21
Return: 5.7

Enquiry: Repeat with Cc1ccc2oc(/C=C/C=C3\Oc4ccc(Cl)cc4N3C)[n+](C)c2c1
Return: 5.5

Enquiry: Repeat with CN1/C(=C/C=C/c2sc3ccc(F)cc3[n+]2C)Sc2ccc(F)cc21
Return: 0.2

Enquiry: Repeat with Cn1/c(=N\N/C=C/c2sc3ccc(Cl)cc3[n+]2C)sc2ccccc21
Return: 1

Enquiry: Repeat with CN1/C(=C/C=C/c2oc3ccc(Cl)cc3[n+]2C)Sc2ccc(Cl)cc21
Return: 1

Enquiry: Repeat with CN1/C(=C/C=C/c2oc3ccccc3[n+]2C)Oc2ccc(Cl)cc21
Return: 3.1

Enquiry: Repeat with CN1/C(=C/C=C/c2oc3ccccc3[n+]2C)Sc2ccc(F)cc21
Return: 5.7

Enquiry: Repeat with CN1/C(=C/C=C/c2sc3ccc(Cl)cc3[n+]2C)Sc2ccc(Cl)cc21
Return: 0.2

Enquiry: Repeat with CCN1/C(=C/C=C/c2oc3ccc(C)cc3[n+]2C)Sc2ccc(F)cc21
Return: 24

Enquiry: Repeat with CN1/C(=C/C=C/c2oc3ccccc3[n+]2C)Sc2ccc(Cl)cc21
Return: 6.4

Enquiry: Repeat with CN1/C(=C/C=C/C=C/c2sc3ccc(F)cc3[n+]2C)Sc2ccc(F)cc21
Return: 1.1

Enquiry: Repeat with CCN1/C(=C/C=C/c2sc3ccc(F)cc3[n+]2CC)Sc2ccc(F)cc21
Return: 0.7

Enquiry: Repeat with Cc1ccc2oc(/C=C/C=C3\Sc4ccc(F)cc4N3C)[n+](C)c2c1
Return: 194

Enquiry: Repeat with CN1/C(=C/C=C/c2sc3ccccc3[n+]2C)Sc2ccccc21
Return: 63

Enquiry: Repeat with CN1/C(=C/C=C/c2sc3ccccc3[n+]2C)Sc2ccc(Cl)cc21
Return: 45

Enquiry: Repeat with Cn1/c(=N/C=C/c2sc3ccc(Cl)cc3[n+]2C)sc2ccccc21
Return: 1.3

Enquiry: Repeat with CN1/C(=C/C=C/c2oc3ccc(Cl)cc3[n+]2C)Sc2ccccc21
Return: 12

Enquiry: Repeat with Cn1/c(=N\N/C=C/c2sc3ccccc3[n+]2C)sc2ccccc21
Return: 1.7

Enquiry: Repeat with CN1/C(=C/C=C/c2oc3ccccc3[n+]2C)Oc2ccccc21
Return: 35.6

Enquiry: Repeat with Cc1ccc2c(c1)N(C)/C(=C/C=C/c1oc3ccccc3[n+]1C)O2
Return: 57.7

Enquiry: Repeat with CN1/C(=C/C=C/C=C/c2sc3ccccc3[n+]2C)Sc2ccccc21
Return: 29.9

Enquiry: Repeat with CCN1/C(=C/C=C/c2oc3ccc(Cl)cc3[n+]2C)Sc2ccc(F)cc21
Return: 3.6

Enquiry: Repeat with Cn1/c(=N/C=C/c2sc3ccccc3[n+]2C)sc2ccccc21
Return: 170

Enquiry: Repeat with CN1/C(=C/C=C/c2oc3ccccc3[n+]2C)Sc2ccccc21
Return: 75.8

Enquiry: Repeat with CN1/C(=C/C=C/C=C/c2sc3ccc(Cl)cc3[n+]2C)Sc2ccc(Cl)cc21
Return: 0.3

Enquiry: Repeat with Cn1/c(=N\N/C=C/c2sc3ccc(F)cc3[n+]2C)sc2ccccc21
Return: 1.3

Enquiry: Repeat with Cc1ccc2oc(/C=C/C=C3\Sc4ccc(Cl)cc4N3C)[n+](C)c2c1
Return: 10.9

Enquiry: Repeat with Cn1/c(=N/C=C/c2sc3ccc(F)cc3[n+]2C)sc2ccccc21
Return: 9

---

system: Trypanosoma brucei rhodesiense; assay: Antiprotozoal activity against Trypanosoma brucei rhodesiense STIB900; assay type: functional, organism-based
Give measured pIC50 for each item. Keep answers brief.
The quantity pIC50 is defined as the negative base-10 logarithm of the molar concentration.

Enquiry: Which pIC50 is reported for this compound? CN1/C(=C/C=C/c2sc3ccccc3[n+]2C)Sc2ccccc21
Return: 6.94

Enquiry: Repeat with CN1/C(=C/C=C/c2oc3ccc(Cl)cc3[n+]2C)Sc2ccccc21
Return: 7.89

Enquiry: Repeat with CN1/C(=C/C=C/c2oc3ccccc3[n+]2C)Sc2ccc(Cl)cc21
Return: 6.58

Enquiry: Repeat with CN1/C(=C/C=C/c2sc3ccccc3[n+]2C)Sc2ccc(Cl)cc21
Return: 7.19

Enquiry: Repeat with Cc1ccc2oc(/C=C/C=C3\Oc4ccc(Cl)cc4N3C)[n+](C)c2c1
Return: 6.87

Enquiry: Repeat with CCN1/C(=C/C=C/c2sc3ccc(F)cc3[n+]2CC)Sc2ccc(F)cc21
Return: 6.11

Enquiry: Repeat with CCN1/C(=C/C=C/c2oc3ccc(C)cc3[n+]2C)Sc2ccc(F)cc21
Return: 6.55

Enquiry: Repeat with CN1/C(=C/C=C/c2sc3ccc(Cl)cc3[n+]2C)Sc2ccc(Cl)cc21
Return: 7.74

Enquiry: Repeat with CCN1/C(=C/C=C/c2oc3ccc(Cl)cc3[n+]2C)Sc2ccc(F)cc21
Return: 6.07

Enquiry: Repeat with CN1/C(=C/C=C/c2oc3ccc(Cl)cc3[n+]2C)Sc2ccc(Cl)cc21
Return: 6.89

Enquiry: Repeat with CN1/C(=C/C=C/c2sc3ccccc3[n+]2C)Sc2ccc(F)cc21
Return: 6.40

Enquiry: Repeat with CN1/C(=C/C=C/C=C/c2sc3ccc(F)cc3[n+]2C)Sc2ccc(F)cc21
Return: 8.70

Enquiry: Repeat with Cn1/c(=N\N/C=C/c2sc3ccc(F)cc3[n+]2C)sc2ccccc21
Return: 5.35

---

experiment: Selectivity index, ratio of IC50 for rat L6 cells to IC50 for chloroquine and pyrimethamine-resistant Plasmodium falciparum K1; format: toxicity, cell-based; details: read-out: Ratio IC50
For each record, check the reported selectivity ratio: if it is below 100 write 1, else write -1.

Enquiry: Here's an entry: CN1/C(=C/C=C/c2oc3ccccc3[n+]2C)Oc2ccc(Cl)cc21 . Is its selectivity ratio below 100?
Return: 1

Enquiry: Repeat with Cc1ccc2c(c1)N(C)/C(=C/C=C/c1oc3ccccc3[n+]1C)S2
Return: 1

Enquiry: Repeat with CN1/C(=C/C=C/c2oc3ccc(Cl)cc3[n+]2C)Sc2ccccc21
Return: -1

Enquiry: Repeat with CN1/C(=C/C=C/c2oc3ccc(Cl)cc3[n+]2C)Oc2ccc(Cl)cc21
Return: 1

Enquiry: Repeat with CN1/C(=C/C=C/c2sc3ccc(Cl)cc3[n+]2C)Sc2ccc(Cl)cc21
Return: -1

Enquiry: Repeat with CN1/C(=C/C=C/c2oc3ccccc3[n+]2C)Sc2ccc(Cl)cc21
Return: -1

Enquiry: Repeat with Cc1ccc2oc(/C=C/C=C3\Sc4ccc(Cl)cc4N3C)[n+](C)c2c1
Return: 1

Enquiry: Repeat with CN1/C(=C/C=C/c2sc3ccccc3[n+]2C)Sc2ccc(F)cc21
Return: 1

Enquiry: Repeat with Cn1/c(=N\N/C=C/c2sc3ccccc3[n+]2C)sc2ccccc21
Return: 1

Enquiry: Repeat with Cc1ccc2c(c1)N(C)/C(=C/C=C/c1oc3ccccc3[n+]1C)O2
Return: 1

Enquiry: Repeat with CN1/C(=C/C=C/c2oc3ccc(Cl)cc3[n+]2C)Sc2ccc(Cl)cc21
Return: -1

Enquiry: Repeat with Cn1/c(=N/C=C/c2sc3ccc(F)cc3[n+]2C)sc2ccccc21
Return: -1

Enquiry: Repeat with CCN1/C(=C/C=C/c2sc3ccccc3[n+]2C)Sc2ccc(F)cc21
Return: 1

Enquiry: Repeat with Cc1ccc2oc(/C=C/C=C3\Oc4ccc(Cl)cc4N3C)[n+](C)c2c1
Return: 1

Enquiry: Repeat with CN1/C(=C/C=C/c2sc3ccc(F)cc3[n+]2C)Sc2ccc(F)cc21
Return: -1

Enquiry: Repeat with Cn1/c(=N/C=C/c2sc3ccccc3[n+]2C)sc2ccccc21
Return: -1

Enquiry: Repeat with CN1/C(=C/C=C/c2sc3ccccc3[n+]2C)Sc2ccc(Cl)cc21
Return: 1

Enquiry: Repeat with Cn1/c(=N\N/C=C/c2sc3ccc(Cl)cc3[n+]2C)sc2ccccc21
Return: 1

Enquiry: Repeat with Cc1ccc2c(c1)N(C)/C(=C/C=C/c1oc3ccc(C)cc3[n+]1C)O2
Return: 1

Enquiry: Repeat with Cn1/c(=N/C=C/c2sc3ccc(Cl)cc3[n+]2C)sc2ccccc21
Return: -1

Enquiry: Repeat with CCN1/C(=C/C=C/c2oc3ccccc3[n+]2C)Sc2ccc(F)cc21
Return: -1

Enquiry: Repeat with Cc1ccc2oc(/C=C/C=C3\Sc4ccc(F)cc4N3C)[n+](C)c2c1
Return: -1

Enquiry: Repeat with Cc1ccc2c(c1)N(C)/C(=C/C=C/c1oc3ccc(C)cc3[n+]1C)S2
Return: 1

Enquiry: Repeat with Cc1ccc2oc(/C=C/C=C3\Sc4ccccc4N3C)[n+](C)c2c1
Return: 1

Enquiry: Repeat with CN1/C(=C/C=C/c2oc3ccccc3[n+]2C)Sc2ccc(F)cc21
Return: -1

Enquiry: Repeat with CCN1/C(=C/C=C/c2oc3ccc(C)cc3[n+]2C)Sc2ccc(F)cc21
Return: 1

Enquiry: Repeat with CCN1/C(=C/C=C/c2sc3ccc(F)cc3[n+]2CC)Sc2ccc(F)cc21
Return: -1

Enquiry: Repeat with CN1/C(=C/C=C/c2oc3ccccc3[n+]2C)Sc2ccccc21
Return: -1

Enquiry: Repeat with CN1/C(=C/C=C/C=C/c2sc3ccc(F)cc3[n+]2C)Sc2ccc(F)cc21
Return: 1

Enquiry: Repeat with CN1/C(=C/C=C/C=C/c2sc3ccccc3[n+]2C)Sc2ccccc21
Return: 1

Enquiry: Repeat with CCN1/C(=C/C=C/c2oc3ccc(Cl)cc3[n+]2C)Sc2ccc(F)cc21
Return: -1

Enquiry: Repeat with Cn1/c(=N\N/C=C/c2sc3ccc(F)cc3[n+]2C)sc2ccccc21
Return: 1

Enquiry: Repeat with CN1/C(=C/C=C/C=C/c2sc3ccc(Cl)cc3[n+]2C)Sc2ccc(Cl)cc21
Return: 1

Enquiry: Repeat with CN1/C(=C/C=C/c2sc3ccccc3[n+]2C)Sc2ccccc21
Return: -1
